Ref: patent US7211587B2

- Tested on: Human pulmonary carcinoma cells (LC-6)
- MEASUREMENT NOTES: Antitumor activity against human pulmonary carcinoma cells (LC-6) transplanted into nude mice
- Assay type: in vivo
- TEST CONDITIONS: Mus musculus, 216 h; LC-6 in nude mice, oral 20 mg/kg once a day for 9 days; read-out: TGIR (tumor growth inhibition rate)
- Protocol: Human pulmonary carcinoma cells (LC-6) (obtained from Central Laboratories for Experimental Animals) were transplanted into nude mice. […] The tumor growth inhibition rate (TGIR) was calculated as follows: The tumor growth inhibition rate (TGIR)=(1−TX/CX)×100 wherein CX represents the volume of tumor at day X for the control group when the tumor volume at the first day of the administration was presumed to be 1; and TX represents the tumor volume for test compound administration groups.
I would appreciate it if you labelled entries 1 when inhibition in vivo at 20 mg/kg is 20% or higher, otherwise -1.

Please review the entries below; each comes with its answer.
COMPOUND	ASSIGNED CATEGORY
COc1cc2ncnc(Oc3ccc(NC(=O)Nc4ncc(C)s4)c(Cl)c3)c2cc1OC [Ex. 39]	1
COc1cc2nccc(Oc3ccc(NC(=O)Nc4nnc(C(F)(F)F)s4)cc3)c2cc1OC [Ex. 50]	-1
COc1cc2nccc(Oc3ccc(NC(=O)Nc4nc(C)c(C)s4)c(F)c3)c2cc1OC [Ex. 23]	1
CCOC(=O)Cc1csc(NC(=O)Nc2ccc(Oc3ccnc4cc(OC)c(OC)cc34)cc2F)n1 [Ex. 29]	1
COc1cc2nccc(Oc3ccc(NC(=O)Nc4nnc(C(F)(F)F)s4)c(C)c3C)c2cc1OC [Ex. 53]	-1
COc1cc2nccc(Oc3ccc(NC(=O)Nc4ccon4)cc3F)c2cc1OC [Ex. 3]	1

Now consider the entry below.
Kindly determine if inhibition in vivo at 20 mg/kg recorded for COc1cc2nccc(Oc3cc(C)c(NC(=O)Nc4nnc(C5CC5)s4)cc3C)c2cc1OC [Ex. 69] is above or exactly 20%. 1

---

The following compounds are shown together with reported IC50 values.
- ASSAYED TARGET: human KDR (Homo sapiens, UniProt P35968)
- Sequence (P35968 20-1356): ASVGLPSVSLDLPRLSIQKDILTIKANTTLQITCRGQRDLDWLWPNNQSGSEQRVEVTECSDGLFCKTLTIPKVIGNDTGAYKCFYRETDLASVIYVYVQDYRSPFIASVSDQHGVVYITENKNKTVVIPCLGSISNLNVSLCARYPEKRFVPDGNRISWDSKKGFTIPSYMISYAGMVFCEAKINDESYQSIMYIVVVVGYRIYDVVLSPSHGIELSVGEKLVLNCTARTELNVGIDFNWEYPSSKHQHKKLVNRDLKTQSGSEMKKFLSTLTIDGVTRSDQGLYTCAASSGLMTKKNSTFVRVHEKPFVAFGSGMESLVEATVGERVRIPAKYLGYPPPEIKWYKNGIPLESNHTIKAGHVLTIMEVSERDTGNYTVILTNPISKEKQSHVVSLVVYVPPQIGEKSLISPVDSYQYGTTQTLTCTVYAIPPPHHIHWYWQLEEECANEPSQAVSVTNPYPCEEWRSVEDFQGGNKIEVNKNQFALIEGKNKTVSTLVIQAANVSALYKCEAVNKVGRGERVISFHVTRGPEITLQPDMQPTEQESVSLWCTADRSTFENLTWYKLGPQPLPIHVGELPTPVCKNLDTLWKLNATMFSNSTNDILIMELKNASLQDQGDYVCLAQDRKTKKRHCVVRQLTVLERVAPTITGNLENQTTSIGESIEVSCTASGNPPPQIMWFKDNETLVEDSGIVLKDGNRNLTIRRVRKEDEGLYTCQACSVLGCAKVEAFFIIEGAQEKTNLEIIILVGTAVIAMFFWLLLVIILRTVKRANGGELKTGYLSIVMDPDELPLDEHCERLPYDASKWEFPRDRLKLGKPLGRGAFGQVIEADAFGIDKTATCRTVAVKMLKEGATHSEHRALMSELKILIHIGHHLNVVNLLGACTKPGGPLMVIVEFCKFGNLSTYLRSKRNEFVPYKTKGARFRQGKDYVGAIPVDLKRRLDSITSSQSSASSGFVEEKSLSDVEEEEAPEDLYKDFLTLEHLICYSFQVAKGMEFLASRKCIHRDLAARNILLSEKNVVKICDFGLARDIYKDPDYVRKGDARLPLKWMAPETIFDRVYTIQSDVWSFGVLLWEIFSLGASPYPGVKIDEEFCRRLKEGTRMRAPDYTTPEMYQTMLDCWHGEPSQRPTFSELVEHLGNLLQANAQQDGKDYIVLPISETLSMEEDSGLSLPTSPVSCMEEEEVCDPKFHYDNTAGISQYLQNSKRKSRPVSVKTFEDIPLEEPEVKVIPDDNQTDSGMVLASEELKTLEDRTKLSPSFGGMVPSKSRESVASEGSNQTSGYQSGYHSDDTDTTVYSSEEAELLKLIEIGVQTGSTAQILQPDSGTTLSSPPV
- MEASUREMENT NOTES: Inhibitory activity against KDR phosphorylation by ELISA (VEGF-stimulated NIH 3T3 cells expressing human KDR)
- TEST CONDITIONS: VEGF 100 ng/ml, compound 1 hr, read-out: IC50 (inhibition of KDR phosphorylation)
Write the answer as a number in nM, unit excluded.

See these solved cases before continuing.
COMPOUND	UNIT LABEL	OBS VALUE
COc1cc2nccc(Oc3ccc(NC(=O)Nc4nc(C(C)(C)C)cs4)c(F)c3)c2cc1OC [Ex. 30]	nM	28.6
COc1cc2ncnc(Oc3ccc(NC(=O)Nc4cc(C)ns4)c(Cl)c3)c2cc1OC [Ex. 17]	nM	4.9
COc1cc2nccc(Oc3ccc(NC(=O)Nc4nnc(C(F)(F)F)s4)c(C)c3C)c2cc1OC [Ex. 53]	nM	1.2

Please report IC50 for the following compound: COc1cc2nccc(Oc3ccc(NC(=O)Nc4nnc(C(C)(C)C)s4)c(F)c3)c2cc1OC [Ex. 74] 3

Please report IC50 for the following compound: COc1cc2nccc(Oc3ccc(NC(=O)Nc4nc(C(C)(C)C)cs4)c(Cl)c3)c2cc1OC [Ex. 33] 21.1

---

- ASSAYED TARGET: human KDR (Homo sapiens, UniProt P35968)
- MEASUREMENT NOTES: Inhibitory activity against KDR phosphorylation by ELISA (VEGF-stimulated NIH 3T3 cells expressing human KDR)
- TEST CONDITIONS: VEGF 100 ng/ml, compound 1 hr, read-out: IC50 (inhibition of KDR phosphorylation)
READOUT LABEL: IC50

See these solved cases before continuing.
SMILES STRUCTURE	IC50
COc1cc2ncnc(Oc3ccc(NC(=O)Nc4nccs4)c(Cl)c3)c2cc1OC	< 1 nM
CCc1nnc(NC(=O)Nc2ccc(Oc3ccnc4cc(OC)c(OC)cc34)cc2Cl)s1	< 1 nM

Please report IC50 for the following molecule: COc1cc2ncnc(Oc3ccc(NC(=O)Nc4cc(C)on4)c(Cl)c3)c2cc1OC < 1 nM
